# tested on: T1, Human Siglec-15, His Tag (human Siglec-15 full-length extracellular domain linked with His tag) (human, UniProt Q6ZMC9 20-263)
# T1 construct: Bought from ACROBiosystems; also called Siglec-15 protein; SG5-H52H3
# T1 sequence: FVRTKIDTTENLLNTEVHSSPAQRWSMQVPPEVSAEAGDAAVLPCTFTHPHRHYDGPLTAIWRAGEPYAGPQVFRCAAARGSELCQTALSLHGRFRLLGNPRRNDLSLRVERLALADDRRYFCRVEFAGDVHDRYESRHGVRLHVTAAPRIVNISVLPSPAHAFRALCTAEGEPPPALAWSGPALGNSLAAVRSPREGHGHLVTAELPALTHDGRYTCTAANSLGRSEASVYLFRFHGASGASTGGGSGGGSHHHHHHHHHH
# assay: SPR Biacore, antibody captured by anti-human Fc on CM5, Siglec-15 protein as analyte
This listing pairs binders with measured koff.
Write the number in s⁻¹ without appending the unit.

Observe how each entry below is paired with its result.
binder: 21F6C6-hH2L2 (antibody, IgG1, V domains shown, Humanized; hIgG1, Kappa) VH: EVQLVESGGGLVKPGGSLRLSCAASGFTFSSYAMSWVRQAPGKGLEWVATISSGGSLIYYADSVTGRFTISRDNAKNTLYLQMNSLRAEDTAVYYCVRHGYYYGDSTLYYAMDYWGQGTTVTVSS VL: DIQLTQSPSSLSASVGDRATITCRASQSVDYDGDSYMNWYQQKPGKAPKLLIYAASNLESGVPSRFSGSGSGTDFTLTISSVQPEDFATYYCQQSNEAPLTFGQGTKLEIK
reported: 0.000314
--
binder: 21F6C6-hH2L4 (antibody, IgG1, V domains shown, Humanized; hIgG1, Kappa) VH: EVQLVESGGGLVKPGGSLRLSCAASGFTFSSYAMSWVRQAPGKGLEWVATISSGGSLIYYADSVTGRFTISRDNAKNTLYLQMNSLRAEDTAVYYCVRHGYYYGDSTLYYAMDYWGQGTTVTVSS VL: DIQMTQSPSSLSASVGDRVTITCRASQSVDYDGDSYMNWYQQKPGKAPKLLIYAASNLQSGVPSRFSGSGSGTDFTLTISSLQPEDFATYYCQQSNEAPLTFGQGTKLEIK
reported: 0.000414

Below: the item to evaluate.
Name the reported koff value associated with the binder 124B11F6-hH1L1 (antibody, IgG1, V domains shown, Humanized; hIgG1 heavy chain constant region, Lambda-C2 light chain constant region) VH: QVQLVQSGAEVKKPGASVKVSCKASVFNIKDYYMHWVRQAPGQGLEWIGRIDPEDDKTKYAPKFQGRATITADTSTNTAYLELSSLRSEDTAVYYCVRGWLGYIMDFWGQGTTVTVSS VL: QLVLTQSPSASFSLGASAKLTCTLSSQHSTYTIDWYQQQPEKGPRYVMELKEDGSHSTGDGIPDRFSGSSSGAERYLTISSIQSEDEADYICGVGATIKEQFVYVFGGGTKVTVL
0.000127
